- Test system: TRPC4 (transient receptor potential cation channel C4 beta), mouse
- assayComment: potentiation of DAMGO EC20 TRPC4 response – cell-based, second round, Fluo-4, HEK293 TRPC4beta/mu-opioid, 1 µM, confirmation (AID 2554)
- experimentalContext: DAMGO EC20, Fluo-4 calcium flux, at 1 µM
Active and inactive are the calls of the source.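 The calls were made as follows: active = primary screen hit whose fluorescence ratio, in both repeats, exceeds the weak agonist control mean by 3 SD; inactive = the rest.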
Choose one outcome from this list and give only that: active, inactive

Task item: Which result was noted for this molecule in the test: `CC(=O)Nc1ccc(S(=O)(=O)Nc2nc3ccc(C)cc3s2)cc1`
Reply: inactive

Task item: Which result was noted for this molecule in the test: COc1ccc(CN(C2CCCCC2C)S(=O)(=O)c2ccc(S(=O)(=O)N(C)C)cc2)cc1OC (configuration not stated)
Reply: inactive

Task item: Which result was noted for this molecule in the test: `COc1ccc(NS(=O)(=O)c2ccc3ccccc3c2)c2ncccc12`
Reply: inactive

Task item: Which result was noted for this molecule in the test: `CCCCOc1ccc(CSCCN=C(N)N)cc1`
Reply: inactive

Task item: Which result was noted for this molecule in the test: `CCn1c(=N)n(CC(=O)c2ccc(Br)s2)c2ccccc21`
Reply: inactive

Task item: Which result was noted for this molecule in the test: `CCOc1ccc(Cl)cc1/C=N/O`
Reply: inactive

Task item: Which result was noted for this molecule in the test: COC(=O)NCC(c1ccc2c(c1)OCO2)N1CCN(c2ccc(OC)cc2)CC1 (configuration not stated)
Reply: inactive

Task item: Which result was noted for this molecule in the test: `O=C(Cc1ccccc1[N+](=O)[O-])OCc1cccc([N+](=O)[O-])c1`
Reply: inactive

Task item: Which result was noted for this molecule in the test: `CCN1CCN(c2ccc(S(=O)(=O)N3CCCCC3)cc2NC(=O)c2cccc(OC(F)F)c2)CC1`
Reply: active

Task item: Which result was noted for this molecule in the test: CCOC(=O)c1c(C)n(-c2ccc(C)cc2)c2ccc(OCC(O)CNCC3CCCO3)cc12 (configuration not stated)
Reply: inactive

Task item: Which result was noted for this molecule in the test: `Cc1cc(C)nc(/N=C(\N)N(Cc2ccccc2)Cc2ccccc2)n1`
Reply: inactive

Task item: Which result was noted for this molecule in the test: `CC[n+]1c(/C=C/Nc2ccccc2)oc2ccc(OC)cc21`
Reply: inactive

Task item: Which result was noted for this molecule in the test: O=C(c1ccc2c(c1)OCO2)C1CCCN(Cc2ccccc2OC(F)F)C1 (configuration not stated)
Reply: inactive

Task item: Which result was noted for this molecule in the test: `Cc1ccc(C(=O)OCCN2CCN(c3ncc(C(F)(F)F)cc3Cl)CC2)cc1`
Reply: inactive

Task item: Which result was noted for this molecule in the test: `CN(C)CCNC(=O)c1c(NC(=O)c2ccccc2)sc2c1CCCC2`
Reply: inactive

Task item: Which result was noted for this molecule in the test: `CN(C)CCCNc1nc(N)c([N+](=O)[O-])c(NCc2ccccc2)n1`
Reply: inactive

Task item: Which result was noted for this molecule in the test: `Cc1ccc(-c2c[n+](Cc3cccc(Cl)c3)c3n2CCC3)cc1`
Reply: inactive

Task item: Which result was noted for this molecule in the test: `CN(CCCNC(=O)CCCOc1cc(=O)n(C)c2ccccc12)Cc1ccccc1`
Reply: active

Task item: Which result was noted for this molecule in the test: `Cc1csc2c(N3CCN(C(=O)Nc4ccc(Cl)c(Cl)c4)CC3)ncnc12`
Reply: inactive

Task item: Which result was noted for this molecule in the test: Cc1ccc(C(C(=O)NC(C)(C)C)N(C(=O)CCC(=O)Nc2ccccn2)c2ccccc2F)cc1 (configuration not stated)
Reply: inactive

Task item: Which result was noted for this molecule in the test: `COc1ccc(Cl)cc1C(=O)NCCN(C)C`
Reply: inactive

Task item: Which result was noted for this molecule in the test: Cc1cccc(C)c1OCC(=O)N1CC2(C)CC1CC(C)(C)C2 (configuration not stated)
Reply: inactive
